Below, each of the compounds is paired with its reported Protection value.
# System: Salmonella enterica
# assay method text: Tested in vivo for the antibacterial activity against Salmonella choleraesuis after sc administration of 25 mg/kg in mice
# Format: functional
# assay conditions: route subcutaneous
Expressed in %, but write only the number.

Please review the following examples before continuing.
O=C1c2c([n+]([O-])c3ccccc3[n+]2[O-])CCN1C1CCCCC1: 0
COCCN1CCc2c([n+]([O-])c3ccccc3[n+]2[O-])C1=O: 90
O=C1c2c([n+]([O-])c3ccccc3[n+]2[O-])CCN1CCO: 0
O=C1c2c([n+]([O-])c3ccccc3[n+]2[O-])CCN1CCN1CCCCC1: 30
C=CCN1CCc2c([n+]([O-])c3ccccc3[n+]2[O-])C1=O: 30
O=C1NCCc2c1[n+]([O-])c1ccccc1[n+]2[O-]: 80

Find the recorded Protection belonging to `CCN1CCc2c([n+]([O-])c3ccccc3[n+]2[O-])C1=O` and report it.
70

Try this compound next: COC(=O)N/N=C/c1c[n+]([O-])c2ccccc2[n+]1[O-] [CARBADOX]
100

And `CN1CCc2c([n+]([O-])c3ccccc3[n+]2[O-])C1=O` ?
100
